Origin of the recorded values: patent US20220317138A1

List of Accuracy <> (average) values.
Biological target: beta-lactamase class D OXA-48 (Klebsiella pneumoniae)
Type: biochemical
Settings: Meropenem 1.2 mg/L, second β-lactam 10.0 mg/L (8.4 times excess), average of 5 replicates
readout.label: Accuracy <> (average) (%)

1) CC(C)(O/N=C(\C(=O)N[C@@H]1C(=O)N2C(C(=O)[O-])=C(C[n+]3ccccc3)CS[C@H]12)c1csc(N)n1)C(=O)O : 111
2) C[C@@H](O)[C@H]1C(=O)N2C(C(=O)O)=C(S[C@@H]3CN[C@H](C(=O)N(C)C)C3)[C@H](C)[C@H]12 : 100
3) CO/N=C(\C(=O)N[C@@H]1C(=O)N2C(C(=O)O)=C(COC(N)=O)CS[C@H]12)c1ccco1 : 104
4) Cc1onc(-c2ccccc2)c1C(=O)N[C@@H]1C(=O)N2[C@@H]1SC(C)(C)[C@@H]2C(=O)O : 119
5) CO/N=C(\C(=O)N[C@@H]1C(=O)N2C(C(=O)O)=C(CSc3nc(=O)c(O)nn3C)CS[C@H]12)c1csc(N)n1 : 112
6) CO/N=C(\C(=O)N[C@@H]1C(=O)N2C(C(=O)O)=C(COC(C)=O)CS[C@H]12)c1csc(N)n1 : 111
7) CC1(C)S[C@@H]2[C@H](NC(=O)[C@H](C(=O)O)c3ccsc3)C(=O)N2[C@H]1C(=O)O : 112
8) Cn1nnnc1SCC1=C(C(=O)O)N2C(=O)[C@@H](NC(=O)[C@H](O)c3ccccc3)[C@H]2SC1 : 115
9) CC1(C)S[C@@H]2[C@H](NC(=O)[C@H](N)c3ccccc3)C(=O)N2[C@H]1C(=O)O : 112

---

List of Accuracy Replicate 1 values.
Biological target: beta-lactamase class D OXA-48 (Klebsiella pneumoniae, UniProt Q6XEC0)
Sequence (Q6XEC0 23-265 limits assumed): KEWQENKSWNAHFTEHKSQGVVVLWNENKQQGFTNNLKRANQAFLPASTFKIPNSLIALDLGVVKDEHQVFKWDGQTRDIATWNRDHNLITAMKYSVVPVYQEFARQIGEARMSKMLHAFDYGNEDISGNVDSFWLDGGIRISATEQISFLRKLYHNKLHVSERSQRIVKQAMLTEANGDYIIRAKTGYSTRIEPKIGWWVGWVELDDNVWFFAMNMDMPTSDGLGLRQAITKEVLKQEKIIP
Assay type: biochemical
Settings: Meropenem 1.2 mg/L, second β-lactam 10.0 mg/L (8.4 times excess), replicate 1
readout.label: Accuracy Replicate 1 (%)

1. Cn1nnnc1SCC1=C(C(=O)O)N2C(=O)[C@@H](NC(=O)[C@H](O)c3ccccc3)[C@H]2SC1 : 112
2. CC(C)(O/N=C(\C(=O)N[C@@H]1C(=O)N2C(C(=O)[O-])=C(C[n+]3ccccc3)CS[C@H]12)c1csc(N)n1)C(=O)O : 108
3. CO/N=C(\C(=O)N[C@@H]1C(=O)N2C(C(=O)O)=C(CSc3nc(=O)c(O)nn3C)CS[C@H]12)c1csc(N)n1 : 105
4. CO/N=C(\C(=O)N[C@@H]1C(=O)N2C(C(=O)O)=C(COC(C)=O)CS[C@H]12)c1csc(N)n1 : 109
5. CC1(C)S[C@@H]2[C@H](NC(=O)[C@H](C(=O)O)c3ccsc3)C(=O)N2[C@H]1C(=O)O : 121
6. CO/N=C(\C(=O)N[C@@H]1C(=O)N2C(C(=O)O)=C(COC(N)=O)CS[C@H]12)c1ccco1 : 108
7. Cc1onc(-c2ccccc2)c1C(=O)N[C@@H]1C(=O)N2[C@@H]1SC(C)(C)[C@@H]2C(=O)O : 115
8. C[C@@H](O)[C@H]1C(=O)N2C(C(=O)O)=C(S[C@@H]3CN[C@H](C(=O)N(C)C)C3)[C@H](C)[C@H]12 : 98
9. CC1(C)S[C@@H]2[C@H](NC(=O)[C@H](N)c3ccccc3)C(=O)N2[C@H]1C(=O)O : 122

---

Target: beta-lactamase class D OXA-48 (Klebsiella pneumoniae, UniProt Q6XEC0)
Format: biochemical
Conditions: Meropenem 20.0 mg/L, second β-lactam 200.0 mg/L (10 times excess), average of 5 replicates
List of Accuracy <> (average) values.
readout.label: Accuracy <> (average) (%)

1. CC1(C)S[C@@H]2[C@H](NC(=O)[C@H](C(=O)O)c3ccsc3)C(=O)N2[C@H]1C(=O)O [Ticarpen ®] : 101
2. Cc1onc(-c2ccccc2)c1C(=O)N[C@@H]1C(=O)N2[C@@H]1SC(C)(C)[C@@H]2C(=O)O [Penstapho ®] : 103
3. CO/N=C(\C(=O)N[C@@H]1C(=O)N2C(C(=O)O)=C(CSc3nc(=O)c(O)nn3C)CS[C@H]12)c1csc(N)n1 [Ceftria ®] : 95
4. CC(C)(O/N=C(\C(=O)N[C@@H]1C(=O)N2C(C(=O)[O-])=C(C[n+]3ccccc3)CS[C@H]12)c1csc(N)n1)C(=O)O [Ceftazidime] : 100
5. Cn1nnnc1SCC1=C(C(=O)O)N2C(=O)[C@@H](NC(=O)[C@H](O)c3ccccc3)[C@H]2SC1 [Cefamandole ®, Cefamandole] : 99
6. C[C@@H](O)[C@H]1C(=O)N2C(C(=O)O)=C(S[C@@H]3CN[C@H](C(=O)N(C)C)C3)[C@H](C)[C@H]12 [Meropenem, meropenem] : 100

---

Target: beta-lactamase class D OXA-48 (Klebsiella pneumoniae)
Type: biochemical
Settings: Meropenem 1.2 mg/L, second β-lactam 10.0 mg/L (8.4 times excess), replicate 5
List of [Meropenem] Replicate 5 values.
readout.label: [Meropenem] Replicate 5 (mg/L)

1) CO/N=C(\C(=O)N[C@@H]1C(=O)N2C(C(=O)O)=C(COC(C)=O)CS[C@H]12)c1csc(N)n1 : 1.3
2) CC(C)(O/N=C(\C(=O)N[C@@H]1C(=O)N2C(C(=O)[O-])=C(C[n+]3ccccc3)CS[C@H]12)c1csc(N)n1)C(=O)O : 1.4
3) Cn1nnnc1SCC1=C(C(=O)O)N2C(=O)[C@@H](NC(=O)[C@H](O)c3ccccc3)[C@H]2SC1 : 1.3

---

Target: beta-lactamase class D OXA-48 (Klebsiella pneumoniae, UniProt Q6XEC0)
Type: biochemical
Details: second drug alone in ultrafiltrated serum at 10 times recommended blood concentration; result expressed as meropenem concentration, theoretically zero; replicate 1
readout.label: [meropenem] (mg/L) Replicates 1

1. NC[C@H](O)c1ccc(O)c(O)c1 : -0.12
2. C[C@H]1C[C@@H]2[C@H]([C@@H](O)C[C@@]3(C)[C@H]2CC[C@]3(O)C(=O)COC(=O)CCC(=O)O)[C@@]2(C)C=CC(=O)C=C12 : -0.01
3. CC[C@@H](C(N)=O)N1CCCC1=O : -0.07
4. NS(=O)(=O)c1cc(C(=O)O)c(NCc2ccco2)cc1Cl : -0.13
5. Cc1[nH]c(=O)c(C#N)cc1-c1ccncc1 : 0.14
6. C[C@@H](c1ncncc1F)[C@](O)(Cn1cncn1)c1ccc(F)cc1F : 0.00
7. COC(=O)C1=C(C)NC(C)=C(C(=O)OCCN(C)Cc2ccccc2)C1c1cccc([N+](=O)[O-])c1 (stereo not drawn) : 0.06
8. CN1C(=O)CN=C(c2ccccc2)c2cc(Cl)ccc21 : 0.05
9. COc1ccc(C[C@@H]2c3cc(OC)c(OC)cc3CC[N@+]2(C)CCC(=O)OCCCCCOC(=O)CC[N@@+]2(C)CCc3cc(OC)c(OC)cc3[C@H]2Cc2ccc(OC)c(OC)c2)cc1OC : 0.01

---

Test system: Per2 beta-lactamase (class A)
Experiment: Screening of beta-lactamases by competition, nitrocefin as reporter substrate
Type: biochemical
readout.label: hydrolysis rate symbol, (Vmax/V0)-1

1. CC1(C)S[C@@H]2[C@H](NC(=O)[C@H](C(=O)O)c3ccsc3)C(=O)N2[C@H]1C(=O)O : ++ (1-10)
2. CC1(C)S[C@@H]2[C@H](NC(=O)[C@H](N)c3ccccc3)C(=O)N2[C@H]1C(=O)O : + (0.1-1)
3. Cc1onc(-c2ccccc2)c1C(=O)N[C@@H]1C(=O)N2[C@@H]1SC(C)(C)[C@@H]2C(=O)O : ++ (1-10)
4. Cn1nnnc1SCC1=C(C(=O)O)N2C(=O)[C@@H](NC(=O)[C@H](O)c3ccccc3)[C@H]2SC1 : + (0.1-1)

---

Molecular target: beta-lactamase class D OXA-48 (Klebsiella pneumoniae)
Format: biochemical
Conditions: Meropenem 1.2 mg/L, second β-lactam 10.0 mg/L (8.4 times excess), replicate 3
readout.label: [Meropenem] Replicate 3 (mg/L)

1. Cn1nnnc1SCC1=C(C(=O)O)N2C(=O)[C@@H](NC(=O)[C@H](O)c3ccccc3)[C@H]2SC1 : 1.3
2. CO/N=C(\C(=O)N[C@@H]1C(=O)N2C(C(=O)O)=C(CSc3nc(=O)c(O)nn3C)CS[C@H]12)c1csc(N)n1 : 1.3
3. Cc1onc(-c2ccccc2)c1C(=O)N[C@@H]1C(=O)N2[C@@H]1SC(C)(C)[C@@H]2C(=O)O : 1.4
4. CC(C)(O/N=C(\C(=O)N[C@@H]1C(=O)N2C(C(=O)[O-])=C(C[n+]3ccccc3)CS[C@H]12)c1csc(N)n1)C(=O)O : 1.3
5. CO/N=C(\C(=O)N[C@@H]1C(=O)N2C(C(=O)O)=C(COC(C)=O)CS[C@H]12)c1csc(N)n1 : 1.2
6. C[C@@H](O)[C@H]1C(=O)N2C(C(=O)O)=C(S[C@@H]3CN[C@H](C(=O)N(C)C)C3)[C@H](C)[C@H]12 : 1.1
7. CO/N=C(\C(=O)N[C@@H]1C(=O)N2C(C(=O)O)=C(COC(N)=O)CS[C@H]12)c1ccco1 : 1.2
8. CC1(C)S[C@@H]2[C@H](NC(=O)[C@H](C(=O)O)c3ccsc3)C(=O)N2[C@H]1C(=O)O : 1.2
9. CC1(C)S[C@@H]2[C@H](NC(=O)[C@H](N)c3ccccc3)C(=O)N2[C@H]1C(=O)O : 1.3
